Molecular target: endothelin receptors
Assay: Inhibition of endothelin binding to human placenta membranes (125I-endothelin)
Conditions: concentration required to inhibit the specific binding of 125I-endothelin by 50%, 125I-endothelin 20 pM, 20° C. for 2 hours or 4° C. for 24 hours
measureName: pIC50
Please keep in mind that pIC50 is minus log10 of the molar concentration; only the number is needed.

Check out these entries, answers already filled in.
| recordSmiles | targetOrTestSystem | pIC50 |
| --- | --- | --- |
| Cc1ccc(-c2c(NS(=O)(=O)c3ccc(C(C)(C)C)cc3)ncnc2OCCO)cc1 | endothelin receptors | 6.00 |
| Cc1ccc(-c2c(NS(=O)(=O)c3ccc(C(C)C)cc3)ncnc2OCCO)cc1 | endothelin receptors | 6.15 |
| COc1ccccc1Cc1c(NS(=O)(=O)c2ccc(C(C)C)cc2)ncnc1OCCO | endothelin receptors | 5.80 |
| COc1ccccc1Cc1c(NS(=O)(=O)c2ccc(C(C)(C)C)cc2)ncnc1OCCO | endothelin receptors | 5.70 |
| CSc1ccccc1Cc1c(NS(=O)(=O)c2ccc(C(C)C)cc2)ncnc1OCCO | endothelin receptors | 6.30 |
| COc1ccc(-c2c(NS(=O)(=O)c3ccc(C(C)C)cc3)ncnc2OCCO)cc1 | endothelin receptors | 5.52 |

Query block: Recorded pIC50 for `O=S(=O)(Nc1ncnc(OCCO)c1-c1ccc(Cl)cc1)c1ccc(C(F)(F)F)cc1` , please?
Result block: 5.30

Every entry's value here was drawn from patent US5270313A.
